- testedOn: plasmin (Homo sapiens (Human))
- Sequence (P00747 581-810, species assumed): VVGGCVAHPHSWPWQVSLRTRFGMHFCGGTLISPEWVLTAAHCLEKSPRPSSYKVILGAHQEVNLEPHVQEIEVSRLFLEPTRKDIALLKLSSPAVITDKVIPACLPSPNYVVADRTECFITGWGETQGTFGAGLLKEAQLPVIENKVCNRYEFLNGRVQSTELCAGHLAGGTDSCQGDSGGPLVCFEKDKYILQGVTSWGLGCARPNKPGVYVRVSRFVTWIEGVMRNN
- Sequence (P00747 97-580 partner, species assumed): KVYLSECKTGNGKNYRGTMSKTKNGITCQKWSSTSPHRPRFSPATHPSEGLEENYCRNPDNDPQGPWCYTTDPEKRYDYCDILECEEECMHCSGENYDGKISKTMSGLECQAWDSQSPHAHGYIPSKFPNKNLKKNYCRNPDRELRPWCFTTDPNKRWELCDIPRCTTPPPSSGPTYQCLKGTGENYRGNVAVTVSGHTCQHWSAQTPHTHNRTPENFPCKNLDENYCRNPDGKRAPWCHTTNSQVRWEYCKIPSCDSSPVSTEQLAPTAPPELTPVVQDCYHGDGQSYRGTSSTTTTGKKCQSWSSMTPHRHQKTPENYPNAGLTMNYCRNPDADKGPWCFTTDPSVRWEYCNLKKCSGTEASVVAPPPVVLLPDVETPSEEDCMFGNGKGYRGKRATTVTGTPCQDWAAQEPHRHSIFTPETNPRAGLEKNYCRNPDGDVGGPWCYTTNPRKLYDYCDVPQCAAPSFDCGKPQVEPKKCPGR
Counter-ions that a name gives are not always drawn.
endpointLabel: log10 of Ki (log10 of the value in µM)
Note: values are log10 of Ki expressed in µM.

Known log10 of Ki results, listed for orientation:
| compound | endpointLabel | quantitativeResult |
| --- | --- | --- |
| Cc1ccc(CS(=O)(=O)N[C@H](CO)C(=O)NCC(=O)NCc2ccc(C(=N)N)cc2)cc1 [R=4-Me, X=CH, R1=H] | log10 of Ki | 1.26 |
| N=C(N)c1ccc(CNC(=O)[C@H](CCCCN)NC(=O)[C@@H](CO)NS(=O)(=O)Cc2ccccc2)cc1 [X=Lys, TFA] | log10 of Ki | -0.44 |
| N=C(N)c1ccc(CNC(=O)CNC(=O)[C@@H](CO)NS(=O)(=O)Cc2ccccc2)cc1 [R=H, X=CH, R1=H] | log10 of Ki | 1.04 |
| N=C(N)c1ccc(CNC(=O)[C@H](Cc2cnc[nH]2)NC(=O)[C@@H](CO)NS(=O)(=O)Cc2ccccc2)cc1 [Example 12, Benzylsulfonyl-dSer-His-4-Amba] | log10 of Ki | -0.40 |
| N=C(N)c1ccc(CNC(=O)[C@H](CO)NC(=O)[C@@H](CO)NS(=O)(=O)Cc2ccccc2)cc1 [R=H, X=CH, R1=CH2—OH] | log10 of Ki | -0.12 |
| N=C(N)c1ccc(CNC(=O)CNC(=O)[C@@H](CN)NS(=O)(=O)Cc2ccccc2)cc1 [Example 11, Benzylsulfonyl-dDap-Gly-4-Amba] | log10 of Ki | 0.98 |

Please turn your attention to the following entry.
Q: Query: log10 of Ki; subject: C[C@H](NC(=O)[C@@H](CO)NS(=O)(=O)Cc1cccc(C(=O)O)c1)C(=O)NCc1ccc(C(=N)N)cc1 [R=3-COOH, X=CH, R1=CH3]
Ans: 0.67
